Recorded values, source ChEMBL document CHEMBL1221271.

Test system: Streptococcus pneumoniae
Test: Antimicrobial activity against Streptococcus pneumoniae SP030 by broth microdilution method
Type: functional

item smiles	assayed system	MIC
CC[C@H]1OC(=O)[C@H](C)[C@@H](O[C@H]2C[C@@](C)(OC)[C@@H](OC(=O)CCCCCOCCCc3ccc4c(c3)c(=O)c(C(=O)O)cn4CC)[C@H](C)O2)[C@H](C)[C@@H](O[C@@H]2O[C@H](C)C[C@H](N(C)C)[C@H]2O)[C@](C)(O)C[C@@H](C)CN(C)[C@H](C)[C@@H](O)[C@]1(C)O	Streptococcus pneumoniae	< 0.125 µg/mL
CCn1cc(C(=O)O)c(=O)c2cc(C#CCOCCCCCC(=O)O)ccc21	Streptococcus pneumoniae	> 64 µg/mL
CC[C@H]1OC(=O)[C@H](C)[C@@H](O[C@H]2C[C@@](C)(OC)[C@@H](OC(=O)CCCCOCC#Cc3ccc4c(c3)c(=O)c(C(=O)O)cn4CC)[C@H](C)O2)[C@H](C)[C@@H](O[C@@H]2O[C@H](C)C[C@H](N(C)C)[C@H]2O)[C@](C)(O)C[C@@H](C)CN(C)[C@H](C)[C@@H](O)[C@]1(C)O	Streptococcus pneumoniae	< 0.125 µg/mL
CC[C@H]1OC(=O)[C@H](C)[C@@H](O[C@H]2C[C@@](C)(OC)[C@@H](OC(=O)CCCCOCCCc3ccc4c(c3)c(=O)c(C(=O)O)cn4CC)[C@H](C)O2)[C@H](C)[C@@H](O[C@@H]2O[C@H](C)C[C@H](N(C)C)[C@H]2O)[C@](C)(O)C[C@@H](C)CN(C)[C@H](C)[C@@H](O)[C@]1(C)O	Streptococcus pneumoniae	< 0.125 µg/mL
CCn1cc(C(=O)O)c(=O)c2cc(C#CCOCCCCC(=O)O)ccc21	Streptococcus pneumoniae	1 µg/mL
CC[C@H]1OC(=O)[C@H](C)[C@@H](O[C@H]2C[C@@](C)(OC)[C@@H](OC(=O)CCCCCOCCCc3ccc4c(c3)c(=O)c(C(=O)O)cn4CC)[C@H](C)O2)[C@H](C)[C@@H](O[C@@H]2O[C@H](C)C[C@H](N(C)C)[C@H]2O)[C@](C)(O)C[C@@H](C)CN(C)[C@H](C)[C@@H](OC)[C@]1(C)O	Streptococcus pneumoniae	< 0.125 µg/mL
CCOC(=O)CCCCOCC#Cc1ccc2c(c1)c(=O)c(C(=O)OCC)cn2CC	Streptococcus pneumoniae	> 64 µg/mL
CC[C@H]1OC(=O)[C@H](C)[C@@H](O[C@H]2C[C@@](C)(OC)[C@@H](O)[C@H](C)O2)[C@H](C)[C@@H](O[C@@H]2O[C@H](C)C[C@H](N(C)C)[C@H]2O)[C@](C)(OC)C[C@@H](C)C(=O)[C@H](C)[C@@H](O)[C@]1(C)O	Streptococcus pneumoniae	≤ 0.125 µg/mL
CC[C@H]1OC(=O)[C@H](C)[C@@H](O[C@H]2C[C@@](C)(OC)[C@@H](OC(=O)CCCCCOCC#Cc3ccc4c(c3)c(=O)c(C(=O)O)cn4CC)[C@H](C)O2)[C@H](C)[C@@H](O[C@@H]2O[C@H](C)C[C@H](N(C)C)[C@H]2O)[C@](C)(OC)C[C@@H](C)C(=O)[C@H](C)[C@@H](O)[C@]1(C)O	Streptococcus pneumoniae	< 0.125 µg/mL
